Taken from patent US4603132A.

- test protocol: acute toxicity test in the mouse
- Format: in vivo
- study conditions: in vivo, iv
reported metric: LD50 (mg/kg)
Respond numerically; units are mg/kg and should not be typed.

Assign LD50 to the following record: c1ccc2c(c1)Sc1ccccc1N2CC1CN2CCC1CC2 (centres unmarked) [mequitazine, reference compound]
23.7

Look up and report measured LD50 for this entry: C[N+]12CCC(CC1)C(CN1c3ccccc3Sc3ccccc31)C2 (centres unmarked) [compound (I)]
3.15

====

- test protocol: acute toxicity test in the mouse
- Assay type: in vivo
- study conditions: in vivo, oral route
Can you tell me LD50 for the items I'm about to list?

Using the record for C[N+]12CCC(CC1)C(CN1c3ccccc3Sc3ccccc31)C2 (centres unmarked) , state its measured LD50.
~700 mg/kg

Provide measured LD50 value, entry: c1ccc2c(c1)Sc1ccccc1N2CC1CN2CCC1CC2 (centres unmarked) [mequitazine, reference compound]
~350 mg/kg
